target system: rat LHRH receptor (Rattus norvegicus, UniProt P30969)
Construct: expressed in transfected cells; host or cells: LTK cells (mouse fibroblasts, ATCC CCL-1.3)
Sequence (P30969 1-327): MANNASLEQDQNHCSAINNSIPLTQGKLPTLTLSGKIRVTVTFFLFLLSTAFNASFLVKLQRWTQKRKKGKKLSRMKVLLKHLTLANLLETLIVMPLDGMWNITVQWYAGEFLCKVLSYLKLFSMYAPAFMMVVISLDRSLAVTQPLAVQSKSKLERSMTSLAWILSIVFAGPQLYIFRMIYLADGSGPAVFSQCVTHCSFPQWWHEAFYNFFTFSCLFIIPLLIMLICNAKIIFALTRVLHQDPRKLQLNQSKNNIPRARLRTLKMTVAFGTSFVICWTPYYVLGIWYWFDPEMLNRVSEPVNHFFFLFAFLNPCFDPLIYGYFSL
assay text: LHRH receptor-ligand binding assay (transfected LTK cells)
run parameters: LTK cells transfected with rat LHRH receptor, 125I-triptorelin tracer, 37° C., 60 min; read-out: Binding to r-LHRHR EC50
Reported pEC50 by item:
Field pEC50 (float): negative decimal logarithm of the concentration in molar.

{"columns": ["molecule", "pEC50"],
 "data": [
  ["CCC(C)[C@H](NC(=O)[C@@]1(NC(=O)[C@H](CCc2ccc(O)cc2)NC(=O)Cc2ccccc2F)CCc2[nH]c3c(Cl)cc(Cl)cc3c2C1)C(N)=S (stereo partly shown)", 8.69],
  ["CCC(C)[C@H](NC(=O)Cc1ccccc1F)C(=O)N[C@]1(C(=O)N[C@H](C(N)=S)C(C)CC)CCc2[nH]c3c(Cl)cc(Cl)cc3c2C1 (stereo partly shown)", 8.62],
  ["CCC(C)[C@H](NC(=O)OCc1ccccc1)C(=O)N[C@]1(C(=O)N[C@H](C(N)=S)C(C)CC)CCc2[nH]c3c(Cl)cc(Cl)cc3c2C1 (stereo partly shown)", 8.10],
  ["CCC(C)[C@H](NC(=O)CCc1ccc(F)cc1)C(=O)N[C@]1(C(=O)N[C@H](C(N)=O)C(C)C)CCc2[nH]c3c(Cl)cc(Cl)cc3c2C1 (stereo partly shown)", 6.20]
]}

Qu. Provide only the value of recorded pEC50 for CCC(C)[C@H](NC(=O)[C@@]1(NC(=O)[C@@H](NC(=O)Cc2ccccc2F)C(C)CC)CCc2[nH]c3c(Cl)cc(Cl)cc3c2C1)C(N)=O (stereo partly shown)
Ans. 8.32

Qu. Kindly indicate its recorded pEC50. Item: `CC(C)[C@H](NC(=O)[C@@]1(NC(=O)[C@@H](NC(=O)OCc2ccc(Cl)cc2)C(C)C)CCc2[nH]c3c(Cl)cc(Cl)cc3c2C1)C(N)=O`
Ans. 6.58

Qu. Using known records, supply pEC50 for CCC(C)[C@H](NC(=O)[C@@]1(NC(=O)[C@@H](NC(=O)CCc2ccccc2F)C(C)CC)CCc2[nH]c3c(Cl)cc(Cl)cc3c2C1)C(N)=O (stereo partly shown)
Ans. 7.14

---

assay text: Metabolic stability in human liver microsomes
Format: in vitro ADME
run parameters: 10 μM, 37° C., NADPH
measured property: recovery at 10 μM (%)
Hi! Could you send only the number? It should be in %, unit omitted.

{"columns": ["compound", "recovery at 10 μM, %"],
 "data": [
  ["CCC(C)[C@H](NC(=O)Cc1ccccc1F)C(=O)N[C@]1(C(=O)N[C@H](C(N)=S)C(C)CC)CCc2[nH]c3c(Cl)cc(F)cc3c2C1 (some centres unmarked)", 75]
]}

Qu. Name the recorded recovery at 10 μM of the item CCC(C)[C@H](NC(=O)Cc1ccccc1F)C(=O)N[C@]1(C(=O)N[C@H](C(N)=S)C(C)CC)CCc2[nH]c3c(C(F)(F)F)cccc3c2C1 (some centres unmarked) in your answer.
Ans. 84

The reported numbers originate from patent US8067456B2.
